B1: PRIM1 (parent)
chain: CCSSADICPKCWTLMTMAIRIIDR

# Variants of: B1
# Assay details: protein stability index of a GFP-peptide fusion (GPS, HEK-293T) (PSI 1-6); higher = more stable;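 further: lentivirally expressed fusions sorted by FACS into six bins by GFP to DsRed ratio, PSI derived from sequencing read proportions per bin multiplied by bin number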
# Run parameters: c terminus: a fixed tail appended
Listed below: protein stability index values for each entry.
API doc: respond with a numeric literal and nothing else, no unit.

// known answers, use as guide
# Sequence variant, Metric name, Val
records = [
    ("M15T", "protein stability index", 2.34),
    ("T16P", "protein stability index", 2.09),
    ("D23E", "protein stability index", 1.94),
    ("L14D", "protein stability index", 1.95),
    ("K10L", "protein stability index", 2.14),
    ("I19S", "protein stability index", 2.6),
    ("I19Q", "protein stability index", 1.81),
    ("C11D", "protein stability index", 3.13),
    ("C2F", "protein stability index", 1.83),
    ("C2A", "protein stability index", 2.49),
]

Asked: I am curious: what protein stability index value has been reported for L14T ?
Given back: 2.89

Asked: Also, M17R please.
Given back: 1.7

Asked: Also, D23T please.
Given back: 1.82

Asked: Also, K10M please.
Given back: 1.92

Asked: Also, L14Q please.
Given back: 1.9

Asked: Also, S3A please.
Given back: 1.82
